Some binders, each annotated with its measured pKd.
target entity: squamous cell carcinoma antigen (UniProt P29508 1-390)
Sequence (P29508 whole entry): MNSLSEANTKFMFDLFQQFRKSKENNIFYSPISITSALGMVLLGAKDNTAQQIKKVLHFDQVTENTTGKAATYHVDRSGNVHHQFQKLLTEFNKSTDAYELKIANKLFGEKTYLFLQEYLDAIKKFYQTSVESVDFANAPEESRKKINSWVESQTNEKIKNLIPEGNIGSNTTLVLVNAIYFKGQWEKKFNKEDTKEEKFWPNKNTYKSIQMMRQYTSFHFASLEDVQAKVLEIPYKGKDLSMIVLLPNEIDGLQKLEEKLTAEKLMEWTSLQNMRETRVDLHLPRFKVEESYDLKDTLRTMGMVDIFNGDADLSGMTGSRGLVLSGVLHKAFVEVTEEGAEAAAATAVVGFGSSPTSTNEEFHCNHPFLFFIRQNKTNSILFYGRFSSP
assay name: BLI; Octet RH96; CEA, SCCAg or CYFRA 21-1 immobilised on AR2G biosensors by amine coupling; peptides in a range of concentrations; room temperature; association 90 s, dissociation 180 s; KD as kd/ka
measurement conditions: both partners purified
// scale note: pKd = -log10(conc_M); give the bare number

binder: IQCFSLAPYVGC (dodecapeptide S3 from phage display, synthesized; source: synthetic peptide (Fmoc solid phase, Synpeptide Co., HPLC purified)) [synthetic peptide S3]
pKd: 5.54

Sample AYSRDVVLNMWR (dodecapeptide S2 from phage display, synthesized; source: synthetic peptide (Fmoc solid phase, Synpeptide Co., HPLC purified)) [synthetic peptide S2] — what was its pKd?
8.21

Sample TLSWHQNLRLME (dodecapeptide S1 from phage display, synthesized; source: synthetic peptide (Fmoc solid phase, Synpeptide Co., HPLC purified)) [synthetic peptide S1] — what was its pKd?
7.55
